System: UniProtKB Q12866 | Read-out: IC50

Consider the reported IC50 for these compounds:
| Item smiles | Target desc | IC50 |
| --- | --- | --- |
| CCOc1ccn(-c2ccc(F)cc2)c(=O)c1C(=O)Nc1ccc(Oc2ccnc3cc(OCCCN4CCN(C)CC4)c4c(c23)OCCO4)c(F)c1 | UniProtKB Q12866 | ≤ 50 nM |
| CCOc1ccn(-c2ccc(F)cc2)c(=O)c1C(=O)Nc1ccc(Oc2ccnc3cc(OCCCOC)c4c(c23)OCCO4)c(F)c1 | UniProtKB Q12866 | ≤ 50 nM |

// switching to the query compound
Response field IC50 (UniProtKB Q12866) for item CCn1cc(C(=O)Nc2ccc(Oc3ccnc4cc(OC)c5c(c34)OCCO5)c(F)c2)c(=O)n(-c2ccc(F)cc2)c1=O : ≤ 50 nM

---

As an illustration, consider measured IC50 for compounds on MER kinase (Homo sapiens (Human), UniProt Q12866).
Sequence (Q12866 21-999): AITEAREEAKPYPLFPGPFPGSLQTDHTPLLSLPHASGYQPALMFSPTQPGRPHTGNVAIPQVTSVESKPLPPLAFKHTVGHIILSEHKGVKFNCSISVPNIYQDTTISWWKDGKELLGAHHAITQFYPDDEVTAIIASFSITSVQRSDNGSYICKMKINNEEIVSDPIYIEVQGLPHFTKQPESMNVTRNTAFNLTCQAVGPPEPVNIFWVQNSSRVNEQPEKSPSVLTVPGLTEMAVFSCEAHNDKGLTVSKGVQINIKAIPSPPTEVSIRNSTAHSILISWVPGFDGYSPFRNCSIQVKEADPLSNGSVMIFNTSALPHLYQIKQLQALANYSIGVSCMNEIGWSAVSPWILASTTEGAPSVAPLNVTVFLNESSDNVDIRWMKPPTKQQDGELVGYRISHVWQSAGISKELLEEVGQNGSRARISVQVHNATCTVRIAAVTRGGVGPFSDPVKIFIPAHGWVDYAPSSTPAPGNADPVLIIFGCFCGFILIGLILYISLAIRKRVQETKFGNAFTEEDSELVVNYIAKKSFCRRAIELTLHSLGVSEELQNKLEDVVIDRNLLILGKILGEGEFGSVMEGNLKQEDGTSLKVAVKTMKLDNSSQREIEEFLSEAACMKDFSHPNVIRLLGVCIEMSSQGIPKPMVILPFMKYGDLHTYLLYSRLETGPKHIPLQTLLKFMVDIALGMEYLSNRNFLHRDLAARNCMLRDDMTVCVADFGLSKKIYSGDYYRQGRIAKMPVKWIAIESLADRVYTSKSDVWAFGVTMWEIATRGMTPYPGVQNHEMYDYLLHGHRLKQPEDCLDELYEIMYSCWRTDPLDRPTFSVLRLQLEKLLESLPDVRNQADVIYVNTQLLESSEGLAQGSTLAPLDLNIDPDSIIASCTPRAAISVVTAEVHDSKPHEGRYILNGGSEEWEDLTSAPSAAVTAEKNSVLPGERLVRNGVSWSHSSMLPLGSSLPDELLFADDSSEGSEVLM

Example cases with answers are listed next.
| Compound | IC50 |
| --- | --- |
| Cn1cc(C(=O)Nc2ccc(Oc3ccnc4ccc5c(c34)OCCO5)cc2F)c(=O)n(-c2ccc(F)cc2)c1=O [Example 162] | 0.05 to 0.5 µM |
| CCOc1ccn(-c2ccc(F)cc2)c(=O)c1C(=O)Nc1ccc(Oc2ccnc3cc(OC4CCOC4)c4c(c23)OCCO4)c(F)c1 (stereo not drawn) [Example 65] | ≤ 0.05 µM |

Kindly note: MER kinase (Homo sapiens (Human), UniProt Q12866), CCOc1ccn(-c2ccc(F)cc2)c(=O)c1C(=O)Nc1ccc(Oc2ccnc3cc(OCCCO)c4c(c23)OCCO4)c(F)c1 [Example 54] , IC50 value reported: ≤ 0.05 µM

Item COc1cc2nccc(Oc3ccc(NC(=O)c4cn(CC(=O)OC(C)(C)C)c(=O)n(-c5ccc(F)cc5)c4=O)cc3F)c2c2c1OCCO2 [Example 103] ; assay system MER kinase (Homo sapiens (Human), UniProt Q12866); IC50 reported as 0.05 to 0.5 µM

---

MER kinase (Homo sapiens (Human)): reported IC50 for various molecules.

# count of solved cases: 3
| Molecule | Target desc | IC50 |
| --- | --- | --- |
| COc1cc2nccc(Oc3ccc(NC(=O)c4cn(CCCO)c(=O)n(-c5ccc(F)cc5)c4=O)cc3F)c2c2c1OCCO2 [Example 99] | MER kinase (Homo sapiens (Human)) | ≤ 50 nM |
| CCOc1ccn(-c2ccc(F)cc2)c(=O)c1C(=O)Nc1ccc(Oc2ccnc3cc(OCCCN(C)CCOC)c4c(c23)OCCO4)c(F)c1 [Example 70] | MER kinase (Homo sapiens (Human)) | ≤ 50 nM |
| CCOc1ccn(-c2ccc(F)cc2)c(=O)c1C(=O)Nc1ccc(Oc2ccnc3cc(OC4CCOCC4)c4c(c23)OCCO4)c(F)c1 [Example 66] | MER kinase (Homo sapiens (Human)) | ≤ 50 nM |

Measured IC50 for this entry CC(C)n1cc(C(=O)Nc2ccc(Oc3ccnc4cc(OCCCN5CCOCC5)c5c(c34)OCCO5)c(F)c2)c(=O)n(-c2ccc(F)cc2)c1=O [Example 16] on MER kinase (Homo sapiens (Human)): ≤ 50 nM

Fill in: MER kinase (Homo sapiens (Human)) IC50 for Cc1cc(F)ccc1-n1ccc(C(=O)Nc2ccc(Oc3ccnc4cc(OCCCN5CCOCC5)c5c(c34)OCCO5)c(F)c2)n1 [Example 26] = 50 to 500 nM

Lab note: molecule COc1cc2nccc(Oc3ccc(NC(=O)c4cn(C(C)C)c(=O)n(Cc5ccc(F)cc5)c4=O)cc3F)c2c2c1OCCO2 [Example 111] tested on MER kinase (Homo sapiens (Human)); recorded IC50 was 50 to 500 nM

Tested on MER kinase (Homo sapiens (Human)): CCOc1ccn(-c2ccc(F)cc2)c(=O)c1C(=O)Nc1ccc(Oc2ccnc3cc(OCCCC#N)c4c(c23)OCCO4)cc1Cl [Example 134] . Observed IC50: ≤ 50 nM

Here COc1cc2nccc(Oc3ccc(NC(=O)c4cn(C(C)C)c(=O)n(-c5ccccc5F)c4=O)cc3F)c2c2c1OCCO2 [Example 110] was tested on MER kinase (Homo sapiens (Human)), and its IC50 came to ≤ 50 nM

Form field IC50 for item CC(C)n1cc(C(=O)Nc2ccc(Oc3ccnc4cc(OCCCN5CCC(C)(C)CC5)c5c(c34)OCCO5)c(F)c2)c(=O)n(-c2ccc(F)cc2)c1=O [Example 92] on MER kinase (Homo sapiens (Human)): ≤ 50 nM

Result for Cc1cc(F)ccc1-n1ccc(C(=O)Nc2ccc(Oc3ncnc4cc(OCCCN5CCOCC5)c5c(c34)OCCO5)c(F)c2)n1 [Example 10] , tested on MER kinase (Homo sapiens (Human)), IC50: 50 to 500 nM

MER kinase (Homo sapiens (Human)) IC50 of COc1cc2nccc(Oc3ccc(NC(=O)c4cn(C(C)C)c(=O)n(-c5cccc(F)c5)c4=O)cc3F)c2c2c1OCCO2 [Example 109] is ≤ 50 nM

MER kinase (Homo sapiens (Human)) assay, molecule COc1cc2nccc(Oc3ccc(NC(=O)c4cn(CC(=O)O)c(=O)n(-c5ccc(F)cc5)c4=O)cc3F)c2c2c1OCCO2 [Example 104] , recorded IC50 = ≤ 50 nM

// assay MER kinase (Homo sapiens (Human)), entry CCOc1cc2nccc(Oc3ccc(NC(=O)c4c(OCC)ccn(-c5ccc(F)cc5)c4=O)cc3F)c2c2c1OCCO2 [Example 62] , IC50 value = ≤ 50 nM

---

Overview of recorded pIC50 for various molecules
- Target desc: VEGFR-2 kinase (Homo sapiens (Human), UniProt P35968)
- Sequence (P35968 20-1356): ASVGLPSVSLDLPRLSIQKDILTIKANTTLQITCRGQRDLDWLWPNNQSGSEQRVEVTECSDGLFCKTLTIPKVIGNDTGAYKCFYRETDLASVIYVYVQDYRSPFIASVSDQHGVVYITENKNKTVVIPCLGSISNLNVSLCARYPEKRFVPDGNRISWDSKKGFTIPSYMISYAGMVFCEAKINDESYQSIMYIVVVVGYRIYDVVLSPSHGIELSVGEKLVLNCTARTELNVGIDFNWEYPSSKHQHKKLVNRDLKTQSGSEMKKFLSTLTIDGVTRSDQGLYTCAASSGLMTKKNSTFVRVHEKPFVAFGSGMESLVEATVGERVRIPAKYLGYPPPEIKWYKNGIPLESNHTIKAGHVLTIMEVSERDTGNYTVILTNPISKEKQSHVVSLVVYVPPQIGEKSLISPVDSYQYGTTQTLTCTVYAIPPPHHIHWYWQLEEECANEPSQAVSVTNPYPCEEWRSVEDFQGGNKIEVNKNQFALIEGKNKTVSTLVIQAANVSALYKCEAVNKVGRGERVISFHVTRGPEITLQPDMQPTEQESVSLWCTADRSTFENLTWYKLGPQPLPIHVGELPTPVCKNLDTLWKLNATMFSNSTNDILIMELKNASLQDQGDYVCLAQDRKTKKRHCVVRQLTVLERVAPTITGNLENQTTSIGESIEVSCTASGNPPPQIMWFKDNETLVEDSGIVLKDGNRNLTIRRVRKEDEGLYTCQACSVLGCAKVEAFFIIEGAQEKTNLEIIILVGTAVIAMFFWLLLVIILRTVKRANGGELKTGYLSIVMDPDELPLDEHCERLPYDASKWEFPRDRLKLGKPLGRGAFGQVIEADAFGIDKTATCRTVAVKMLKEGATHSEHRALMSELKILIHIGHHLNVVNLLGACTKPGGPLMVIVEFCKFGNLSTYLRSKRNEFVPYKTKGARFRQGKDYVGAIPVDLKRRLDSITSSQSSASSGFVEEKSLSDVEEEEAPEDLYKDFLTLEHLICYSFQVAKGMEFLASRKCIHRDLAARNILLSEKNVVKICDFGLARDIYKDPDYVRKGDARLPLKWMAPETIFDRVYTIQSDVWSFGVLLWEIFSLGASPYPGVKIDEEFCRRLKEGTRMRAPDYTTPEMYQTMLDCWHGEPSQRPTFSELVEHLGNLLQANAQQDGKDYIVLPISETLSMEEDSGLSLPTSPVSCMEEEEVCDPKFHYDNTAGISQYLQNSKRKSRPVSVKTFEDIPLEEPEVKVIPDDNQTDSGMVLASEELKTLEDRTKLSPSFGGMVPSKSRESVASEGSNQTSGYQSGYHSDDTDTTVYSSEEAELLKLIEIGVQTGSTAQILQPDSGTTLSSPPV
- Measurement notes: Assay of small molecular compounds for inhibiting the activity of VEGFR-2 kinase (LANCE TR-FRET)
- Assay type: biochemical
- Experimental parameters: read-out: VEGFR2 IC50
pIC50: −log10 of the molar value.

| Item smiles | Target desc | Value type | Reading |
| --- | --- | --- | --- |
| CCOc1ccn(-c2ccc(F)cc2)c(=O)c1C(=O)Nc1ccc(Oc2ccnc3cc(OCCCN4CCOCC4)c4c(c23)OCCO4)cc1Cl | VEGFR-2 kinase (Homo sapiens (Human), UniProt P35968) | pIC50 | 6.30 to 7.30 |

Form field pIC50 for item CCOc1ccn(-c2ccc(F)cc2)c(=O)c1C(=O)Nc1ccc(Oc2ccnc3cc(OCC(C)(C)O)c4c(c23)OCCO4)c(F)c1 on VEGFR-2 kinase (Homo sapiens (Human), UniProt P35968): 6.30 to 7.30

Reported pIC50 (VEGFR-2 kinase (Homo sapiens (Human), UniProt P35968)) for entry CCOc1cc2nccc(Oc3ccc(NC(=O)c4c(OC)ccn(-c5ccc(F)cc5)c4=O)c(Cl)c3)c2c2c1OCCO2 is 5.30 to 6.30

---

Consider the following molecules and their measured pIC50 readings.
- Target desc: VEGFR-2 kinase (Homo sapiens (Human), UniProt P35968)
pIC50: −log10 of the molar value.

Bench note, VEGFR-2 kinase (Homo sapiens (Human), UniProt P35968): entry COc1ccn(-c2ccc(F)cc2)c(=O)c1C(=O)Nc1ccc(Oc2ccnc3cc(OCCCC#N)c4c(c23)OCCO4)cc1Cl , its pIC50 = 5.30 to 6.30

---

Target or system VEGFR-2 kinase (Homo sapiens (Human), UniProt P35968); recorded quantity IC50.

Illustrative cases are given below, each with its answer.
| Compound | Reading |
| --- | --- |
| COc1ccn(-c2ccc(F)cc2)c(=O)c1C(=O)Nc1ccc(Oc2ccnc3cc(OCCCN4CCOCC4)c4c(c23)OCCO4)c(F)c1 | ≤ 50 nM |
| COc1ccn(-c2ccc(F)cc2)c(=O)c1C(=O)Nc1ccc(Oc2ccnc3ccc4c(c23)OCCO4)cc1F | > 5000 nM |
| COc1cc2nccc(Oc3ccc(NC(=O)c4cccn(-c5ccc(F)cc5)c4=O)c(Cl)c3)c2c2c1OCCO2 | > 5000 nM |

Field IC50 (VEGFR-2 kinase (Homo sapiens (Human), UniProt P35968)), entry CCOc1ccn(-c2ccc(F)cc2)c(=O)c1C(=O)Nc1ccc(Oc2ccnc3cc(OC4CCOC4)c4c(c23)OCCO4)c(F)c1 (stereo not shown) : 50 to 500 nM

// returns IC50 for COc1ccn(-c2ccc(F)cc2)c(=O)c1C(=O)Nc1ccc(Oc2ccnc3cc(OCC(C)(C)O)c4c(c23)OCCO4)cc1Cl with VEGFR-2 kinase (Homo sapiens (Human), UniProt P35968); value = 500 to 5000 nM

Form: item CCOc1ccn(-c2ccc(F)cc2)c(=O)c1C(=O)Nc1ccc(Oc2ccnc3cc(OCCCN4CCCCC4)c4c(c23)OCCO4)cc1Cl ; test system VEGFR-2 kinase (Homo sapiens (Human), UniProt P35968); IC50: ≤ 50 nM

Record COc1cc2nccc(Oc3ccc(NC(=O)c4cn(CCO)c(=O)n(-c5ccc(F)cc5)c4=O)cc3F)c2c2c1OCCO2 has VEGFR-2 kinase (Homo sapiens (Human), UniProt P35968) IC50 equal to 500 to 5000 nM

Log: VEGFR-2 kinase (Homo sapiens (Human), UniProt P35968), compound CCOc1ccn(-c2ccc(F)cc2)c(=O)c1C(=O)Nc1ccc(Oc2ccnc3cc(OCC(C)(C)O)c4c(c23)OCCO4)cc1Cl , IC50 = 50 to 500 nM

Record for CCn1cc(C(=O)Nc2ccc(Oc3ccnc4cc(OCCOC)c5c(c34)OCCO5)cc2)c(=O)n(-c2ccc(F)cc2)c1=O under target or system VEGFR-2 kinase (Homo sapiens (Human), UniProt P35968): IC50 reported as 500 to 5000 nM
